Origin of the recorded values: the emibetuzumab library of Makowski et al. (2022)

B1: VH:VL chains; a variant is named by its letters at X, in order (parent)
chain 1: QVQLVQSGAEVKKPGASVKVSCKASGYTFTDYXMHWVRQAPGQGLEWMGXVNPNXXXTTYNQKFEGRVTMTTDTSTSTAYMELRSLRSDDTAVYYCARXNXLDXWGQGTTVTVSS
chain 2: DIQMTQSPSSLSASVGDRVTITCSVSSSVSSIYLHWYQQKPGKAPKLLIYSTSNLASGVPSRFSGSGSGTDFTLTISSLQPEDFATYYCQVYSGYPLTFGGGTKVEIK

Variants of: B1
Assay: yeast display scFab, FACS + sequencing
Recorded metric: non-specific binding call

Record excerpt, results attached:
Tell me its non-specific binding call given "YTRGADGS" as the entry. no binding

Tell me its non-specific binding call given "VKEADAWV" as the entry. no binding

Tell me its non-specific binding call given "YGTAAFGF" as the entry. binds

Tell me its non-specific binding call given "SGGRTYGV" as the entry. binds

Tell me its non-specific binding call given "YGGTSYSV" as the entry. no binding

Go through the list and state non-specific binding call for each entry.
1. VKARSAGV
2. YRRESSGV

1. binds
2. binds

Tell me its non-specific binding call given "SARADSGV" as the entry. no binding
